Read-out: growth arrest and DNA damage 45 (GADD45B), GADD45B (gene 4616)
Assay: LTEA_HepaRG_GADD45B: Life Technologies and Expression Analysis (LTEA) Assay for growth arrest and DNA damage 45 (GADD45B) using HepaRG (AID 2283461)
Conditions: mRNA level, 48 h; actives raise or lower the signal
Active and inactive are the calls of the source. Rule for the calls: active = hit-call score of the fitted dose curve at least 0.9, where 1 is the maximum; inactive = score below 0.9.
Allowed answers: active, inactive

Recorded results for 8 compounds are shown here.
>  <Compound>
O=C(O)COc1nc(Cl)c(Cl)cc1Cl

>  <Label>
inactive

$$$$
>  <Compound>
CCNc1nc(Cl)nc(NC(C)C)n1

>  <Label>
inactive

$$$$
>  <Compound>
CNC(=O)ON=CC(C)(C)SC

>  <Label>
inactive

$$$$
>  <Compound>
COP(=S)(OC)Oc1nc(Cl)c(Cl)cc1Cl

>  <Label>
inactive

$$$$
>  <Compound>
CON(C)C(=O)Nc1ccc(Cl)c(Cl)c1

>  <Label>
inactive

$$$$
>  <Compound>
Cc1c(F)c(F)c(COC(=O)C2C(/C=C(\Cl)C(F)(F)F)C2(C)C)c(F)c1F (stereo not drawn)

>  <Label>
inactive

$$$$
>  <Compound>
CCOc1cc(Oc2ccc(C(F)(F)F)cc2Cl)ccc1[N+](=O)[O-]

>  <Label>
inactive

$$$$
>  <Compound>
N#Cc1cc(Br)c(O)c(Br)c1

>  <Label>
active

$$$$

Could you kindly confirm the outcome this assay logged for COC(=O)C(C)Oc1ccc(Oc2ccc(Cl)cc2Cl)cc1 (stereo not drawn) ?
inactive

Same question, `CCCCNC(=O)n1c(NC(=O)OC)nc2ccccc21` this time
inactive

Same question, `CCCCOC(=O)c1ccccc1C(=O)OCCCC` this time
inactive

Same question, C=CCC1=C(C)C(OC(=O)C2C(C=C(C)C)C2(C)C)CC1=O (stereo not drawn) this time
inactive

Same question, `COc1ccc(C(c2ccc(OC)cc2)C(Cl)(Cl)Cl)cc1` this time
active
